B1: library; a variant is named by its letters at N, in order (parent)
chain: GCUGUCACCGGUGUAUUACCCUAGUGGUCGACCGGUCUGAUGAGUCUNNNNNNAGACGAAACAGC

Variants of: B1
Assay: normalized RNA/DNA level with ligand (relative to sTRSVctl = 100) (log10 (% of sTRSVctl)); ligand: hypoxanthine (xanthine aptamer); higher = less ribozyme self-cleavage, higher mRNA level
Conditions: ligand concentration (+) RNA-Seq: 5 mM, HEK293T, reporter: mCherry (pCS4076), ligand present: yes
Measured Parameter: normalized RNA/DNA level with ligand (log10)
Output: the number by itself.

Sample records with normalized RNA/DNA level with ligand (log10):
INSERT INTO assay_data (mutation_label, endpoint_result) VALUES
  ('CGCUCU', 2.02),
  ('AUCGUG', 1.82),
  ('AUAGAG', 1.81);

Task: Fill in: normalized RNA/DNA level with ligand (log10) of AUAGCA is ___
Output: 1.88

Task: Sample GACAAA — what was its normalized RNA/DNA level with ligand (log10)?
Output: 1.91

Task: Param item = CAAAGG ; retrieve measured normalized RNA/DNA level with ligand (log10).
Output: 1.75

Task: Entry CAUUGA has what normalized RNA/DNA level with ligand (log10)?
Output: 1.91

Task: Given the entry ACAUUC , report its measured normalized RNA/DNA level with ligand (log10).
Output: 1.98

Task: State the recorded normalized RNA/DNA level with ligand (log10) for this entry: AAAACU
Output: 1.91

Task: Dear colleague, I am looking for the recorded normalized RNA/DNA level with ligand (log10) of the following variant: CGGAUU
Output: 1.94
